All figures here come from PubChem BioAssay AID1159580.

test: chemical genetic growth profiling, strain panel (AID 1159580);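 further: tested at 20 µM; growth read once vehicle control cultures reached saturation at 30 °C; lower values mean less growth of the strain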; conditions: S. cerevisiae deletion strains, growth OD, locus YER016W, strain bim1
Hit rate of the full screen: of about 5,500 compounds, about 2,000 (36%) were called active. Another 18% or so got no clear call; they are omitted. No stated cut-off is given here; in the data, active means normalized growth mostly below about 0.91 (no sharp cut-off); inconclusive means no clear call, values can overlap the other calls; inactive means mostly above about 0.92. This is one part of the list.
Allowed answers: active, inactive

Short answer needed: outcome of this test for CCC1(c2ccc(N)cc2)CCC(=O)NC1=O (centres undefined) ?
inactive

Short answer needed: outcome of this test for CCCCOc1ccc(CC(=O)NO)cc1 ?
inactive

Short answer needed: outcome of this test for OCc1ccccc1O[C@@H]1O[C@H](CO)[C@@H](O)[C@H](O)[C@H]1O ?
inactive

Short answer needed: outcome of this test for COc1cc2c(cc1OC)C(=O)C(CC1CCN(Cc3ccccc3)CC1)C2 (centres undefined) ?
inactive

Short answer needed: outcome of this test for COc1ccc2c(c1)[C@@]1(C)CCC(=O)C[C@H]1CC2 ?
inactive

Short answer needed: outcome of this test for CC(C)(CO)C(O)C(=O)NCCCO (centres undefined) ?
inactive

Short answer needed: outcome of this test for COC1C(O)C(O)C(O)[C@@H](O)C1O (some centres undefined) ?
inactive

Short answer needed: outcome of this test for S=C=NCc1ccccc1 ?
active

Short answer needed: outcome of this test for CCC1(C)CC(=O)NC1=O (centres undefined) ?
inactive
